Assayed system: T1, BsoBI D246R (UniProt P70985 P70985:1-323, D246R)
T1 sequence: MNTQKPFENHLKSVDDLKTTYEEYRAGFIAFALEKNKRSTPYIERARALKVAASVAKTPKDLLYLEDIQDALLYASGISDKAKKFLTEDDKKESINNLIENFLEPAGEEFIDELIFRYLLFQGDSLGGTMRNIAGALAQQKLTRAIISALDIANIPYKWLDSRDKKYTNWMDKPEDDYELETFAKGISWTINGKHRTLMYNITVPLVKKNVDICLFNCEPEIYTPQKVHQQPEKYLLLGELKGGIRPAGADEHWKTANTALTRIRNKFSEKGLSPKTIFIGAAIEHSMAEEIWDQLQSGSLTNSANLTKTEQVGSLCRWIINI
Method: filter; 4 mM CaCl2; ±4.9; increased non-specific binding
Condition description: chain copies: 2 inferred; label: 33P 5' end
Measurement type: Kd (nM)
Record the value in nM, omitting the unit from your answer.

// sample N (CATAAC, non-specific) (dsDNA) DNA 1: GAGTGTTATGGGTAGCATAACTGAAGTGGGAATATC DNA 2: GATATTCCCACTTCAGTTATGCTACCCATAACACTC , its Kd was 0.064
